- Tested on: RB1
- test: 3' UTR reporter interaction score (median-centred robust z-score of log2 firefly/Renilla activity); higher = less repression of the 3' UTR reporter
- run-conditions: HEK293T; 48 h
Catalogue of sequences with associated 3' UTR reporter interaction score

# example entries with known answers
INSERT INTO measurements (biopolymer_sequence, endpoint_result) VALUES
  ('UGUCUGCCCGCAUGCCUGCCUCU', 0.711),
  ('AUCCUUGCUAUCUGGGUGCUA', -2.46),
  ('UGUGUCACUCGAUGACCACUGU', -0.876);

Lab note: next sequence to report on.
Query: Provide only the value of recorded 3' UTR reporter interaction score for "UUCCCUUUGUCAUCCUUCGCCU"
Response: 0.903

----------
- System: MYB
- test: 3' UTR reporter interaction score (median-centred robust z-score of log2 firefly/Renilla activity); higher = less repression of the 3' UTR reporter
- run-conditions: HEK293T; 48 h
metric-name: 3' UTR reporter interaction score
Hey, just send me the number, nothing else.

INSERT INTO assay_data (biopolymer_sequence, endpoint_result) VALUES
  ('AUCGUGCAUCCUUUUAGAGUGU', 0.368),
  ('UGAGAACUGAAUUCCAUAGGCU', 0.897),
  ('UGUGACUGGUUGACCAGAGGG', -1.86);

Query: Specify measured 3' UTR reporter interaction score for "CACUCAGCCUUGAGGGCACUUUC" .
Response: 1.11

Query: State, in one line, measured 3' UTR reporter interaction score of "UAUGGCUUUUCAUUCCUAUGUG"
Response: -0.208

----------
- Tested on: BRCA2
- test: 3' UTR reporter interaction score (median-centred robust z-score of log2 firefly/Renilla activity); higher = less repression of the 3' UTR reporter
- run-conditions: HEK293T; 48 h
Measured 3' UTR reporter interaction score of individual entries

A selection of reference data follows.
INSERT INTO measurements (biopolymer_sequence, endpoint_result) VALUES
  ('CUUUCAGUCGGAUGUUUGCAGC', -0.362),
  ('UAGGCAGUGUCAUUAGCUGAUUG', 1.04),
  ('UUGUGCUUGAUCUAACCAUGU', 0.391),
  ('ACUCCAGCCCCACAGCCUCAGC', -0.443),
  ('UGUGCAAAUCUAUGCAAAACUGA', -0.799);

Query: Dear colleague, please send me the reported 3' UTR reporter interaction score for "CAUGCCUUGAGUGUAGGACCGU" when you can.
Response: 0.421

Query: Please give measured 3' UTR reporter interaction score of the following entry: "UUAUAAUACAACCUGAUAAGUG"
Response: 0.693

Query: Give 3' UTR reporter interaction score for the following sequence: "CUUGGUUCAGGGAGGGUCCCCA"
Response: -0.342

----------
- System: MYT1L
- test: 3' UTR reporter interaction score (median-centred robust z-score of log2 firefly/Renilla activity); higher = less repression of the 3' UTR reporter
- run-conditions: HEK293T; 48 h
Record yes whenever 3' UTR reporter interaction score is at 0.07 or higher; record no when lower.

Examples from the recorded data:
INSERT INTO assay_data (biopolymer_sequence, assigned_class) VALUES
  ('UUUAACAUGGGGGUACCUGCUG', 'no'),
  ('GCUAGUCCUGACUCAGCCAGU', 'yes');

Query: API: above_or_equal(metric=3' UTR reporter interaction score, cutoff=0.07) for item "UAACAGUCUCCAGUCACGGCC"
Response: yes

From: the supplement of paper PMC5844555
